Target: GABA A receptor alpha-2/beta-2/gamma-2 (Homo sapiens) (UniProt P47870+P18507+P47869)
Assay: Maximal efficacy for GABA-evoked chloride currents mediated by human Gamma-aminobutyric acid GABA-A receptor alpha2-beta2-gamma2L expressed in Xenopus oocytes
Format: cell-based
Settings: Oocyte
Assign Satisfied whenever Maximal efficacy does not fall below 400%; assign Not satisfied whenever it does.

[Q] Hi, just wondering whether CC(=O)[C@H]1CC[C@H]2[C@@H]3CC[C@H]4C[C@H](O)CC[C@]4(C)[C@H]3C(=O)C[C@]12C shows Maximal efficacy of 400% or higher.
[A] Not satisfied

[Q] Determine whether this molecule has Maximal efficacy no lower than 400%: c1ccc(-c2nccn2-c2ccccc2)cc1
[A] Not satisfied

[Q] # check: Maximal efficacy of CC(C)c1cccc(C(C)C)c1O [PROPOFOL] is greater than or equal to 400%
[A] Satisfied

[Q] Please tell me: is the molecule O=C(OCCN1CCCCC1)c1cn(-c2ccc(Cl)cc2Cl)c(-c2ccc(Br)cc2)n1 at or over 400% in terms of Maximal efficacy?
[A] Not satisfied

[Q] Exam item: decide whether the reported Maximal efficacy for CCOC(=O)c1cn(-c2ccc(Cl)cc2Cl)c(-c2ccc(OC)cc2)n1 is at least 400%.
[A] Not satisfied

[Q] I'd appreciate it if you could say whether CCOC(=O)c1cn(-c2ccc(Cl)cc2Cl)c(-c2ccc([N+](=O)[O-])cc2)n1 has Maximal efficacy at least equal to 400%.
[A] Satisfied
